# tested target: Protein smoothened (Mus musculus, UniProt P56726)
# Sequence (P56726 whole entry): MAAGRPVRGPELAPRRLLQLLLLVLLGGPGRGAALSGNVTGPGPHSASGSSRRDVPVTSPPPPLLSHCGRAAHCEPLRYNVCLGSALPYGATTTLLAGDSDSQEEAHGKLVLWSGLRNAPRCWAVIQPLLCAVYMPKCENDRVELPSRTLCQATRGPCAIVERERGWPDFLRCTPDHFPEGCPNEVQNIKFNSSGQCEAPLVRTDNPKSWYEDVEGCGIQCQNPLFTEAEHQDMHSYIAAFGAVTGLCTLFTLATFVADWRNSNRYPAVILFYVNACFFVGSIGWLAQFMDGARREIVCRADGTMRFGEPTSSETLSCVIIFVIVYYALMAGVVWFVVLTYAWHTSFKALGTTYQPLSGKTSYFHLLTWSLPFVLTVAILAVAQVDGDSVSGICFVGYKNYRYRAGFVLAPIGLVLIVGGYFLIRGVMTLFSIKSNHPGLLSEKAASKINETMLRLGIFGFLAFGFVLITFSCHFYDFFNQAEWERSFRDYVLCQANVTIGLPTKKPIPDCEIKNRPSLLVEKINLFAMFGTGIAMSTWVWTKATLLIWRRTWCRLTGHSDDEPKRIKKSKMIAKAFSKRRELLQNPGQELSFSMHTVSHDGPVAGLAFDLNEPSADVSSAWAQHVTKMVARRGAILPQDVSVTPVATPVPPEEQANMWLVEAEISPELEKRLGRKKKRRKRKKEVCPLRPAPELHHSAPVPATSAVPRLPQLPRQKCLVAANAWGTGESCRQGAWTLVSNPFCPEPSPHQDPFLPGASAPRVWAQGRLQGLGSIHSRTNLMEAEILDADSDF
# test: Inhibition of smo-mediated hedgehog signaling pathway in mouse ASZ001 cells assessed as decrease in Gli1 mRNA expression after 48 hrs by qPCR method
pIC50: −log10 of the molar value.
Quick rule: pIC50 of at least 6 means class 1, below that means class 0.

• C[C@]1(c2ccc(Cl)cc2Cl)OC[C@@H](COc2ccc(N3CCN(c4ccc(NC(=O)c5ccccc5)cc4)CC3)cc2)O1 = class 0
• C[C@]1(c2ccc(Cl)cc2Cl)OC[C@@H](COc2ccc(N3CCN(c4ccc([N+](=O)[O-])cc4)CC3)cc2)O1 = class 1
• C[C@@]1(c2ccc(Cl)cc2Cl)OC[C@@H](COc2ccc(N3CCN(c4ccc(-n5cn[nH]c5=O)cc4)CC3)cc2)O1 = class 1
• C[C@@]1(c2ccc(Cl)cc2Cl)OC[C@@H](COc2ccc(N3CCN(c4ccc(NC(=O)c5ccccc5O)cc4)CC3)cc2)O1 = class 0
• COc1cccc(C(=O)Nc2ccc(N3CCN(c4ccc(OC[C@@H]5CO[C@](C)(c6ccc(Cl)cc6Cl)O5)cc4)CC3)cc2)c1 = class 0
• C[C@]1(c2ccc(Cl)cc2Cl)OC[C@@H](COc2ccc(N3CCN(c4ccc(N)cc4)CC3)cc2)O1 = class 1
• C[C@@]1(c2ccc(Cl)cc2Cl)OC[C@@H](COc2ccc(N3CCN(c4ccc(NC(=O)c5ccc6ccccc6c5)cc4)CC3)cc2)O1 = class 0
• C[C@@]1(c2ccc(Cl)cc2Cl)OC[C@@H](COc2ccc(N3CCN(c4ccc([N+](=O)[O-])cc4)CC3)cc2)O1 = class 1
• C[C@]1(c2ccc(Cl)cc2Cl)OC[C@@H](COc2ccc(N3CCN(c4ccc(NC(=O)c5ccncc5)cc4)CC3)cc2)O1 = class 0
• C[C@@]1(c2ccc(Cl)cc2Cl)OC[C@@H](COc2ccc(N3CCN(c4ccc(NC(=O)c5ccccn5)cc4)CC3)cc2)O1 = class 0
• C[C@]1(c2ccc(Cl)cc2Cl)OC[C@@H](COc2ccc(N3CCN(c4ccc(NC(=O)c5ccc6ccccc6c5)cc4)CC3)cc2)O1 = class 0
• C[C@]1(c2ccc(Cl)cc2Cl)OC[C@@H](COc2ccc(N3CCN(c4ccc(NC(=O)c5ccc(O)cc5)cc4)CC3)cc2)O1 = class 0
• C[C@@]1(c2ccc(Cl)cc2Cl)OC[C@@H](COc2ccc(N3CCN(c4ccc(NC(=O)c5ccccc5)cc4)CC3)cc2)O1 = class 0
• C[C@]1(c2ccc(Cl)cc2Cl)OC[C@@H](COc2ccc(N3CCN(c4ccc(NC(=O)c5ccoc5)cc4)CC3)cc2)O1 = class 0

----------
Below is a list of entries, each paired with its recorded GI50 value.
# System: Medulloblastoma cell
# test: Antiproliferative activity against medulloblastoma cells derived from conditional patched knockout mouse after 48 hrs by [3H]-thymidine incorporation assay
# Format: functional
quantity: GI50

* C[C@@]1(c2ccc(Cl)cc2Cl)OC[C@@H](COc2ccc(N3CCN(c4ccc(NC(=O)NN)cc4)CC3)cc2)O1 | 500 nM
* C[C@]1(c2ccc(Cl)cc2Cl)OC[C@@H](COc2ccc(N3CCN(c4ccc(NC(=O)NN)cc4)CC3)cc2)O1 | 2800 nM
* C[C@@]1(c2ccc(Cl)cc2Cl)OC[C@@H](COc2ccc(N3CCN(c4ccc(NC(=O)c5cccc(O)c5)cc4)CC3)cc2)O1 | 2800 nM
* C[C@]1(c2ccc(Cl)cc2Cl)OC[C@@H](COc2ccc(N3CCN(c4ccc(NC(=O)c5cccnc5)cc4)CC3)cc2)O1 | 1100 nM
* C[C@@]1(c2ccc(Cl)cc2Cl)OC[C@@H](COc2ccc(N3CCN(c4ccc(NC(=O)c5cccnc5)cc4)CC3)cc2)O1 | > 10000 nM
* C[C@]1(c2ccc(Cl)cc2Cl)OC[C@@H](COc2ccc(N3CCN(c4ccc(NC(=O)c5cccc(O)c5)cc4)CC3)cc2)O1 | 350 nM
